test system: TO-N3 (biotin conjugate); experiment: pull-down binding Z-score (relative to library population); higher = stronger binding; conditions: RNA library: Library-2
Label rule, in plain words: pull-down binding Z-score of 0.4 and up is 1, under 0.4 is -1.

>>> class("GCGGUUUUUGCUAUUGGUUUUAAUGGC [hsa-mir-548au]")
-1
>>> class("UGUUCAUUCACAUGAUCAUAAGUGGACA [hsa-mir-4643]")
-1
>>> class("CGGGCCCCUCCCCUCAAUGGGCCCG [hsa-mir-5685]")
-1
>>> class("CAUGAAGUGUGAUCAUUGUGGUGAAACUUCAUG")
-1
>>> class("UGUUCAGUGGGAUUUGGAGA [hsa-mir-8061]")
1
